- systemName: UniProt:P13945
- Sequence (P13945 whole entry, looked up): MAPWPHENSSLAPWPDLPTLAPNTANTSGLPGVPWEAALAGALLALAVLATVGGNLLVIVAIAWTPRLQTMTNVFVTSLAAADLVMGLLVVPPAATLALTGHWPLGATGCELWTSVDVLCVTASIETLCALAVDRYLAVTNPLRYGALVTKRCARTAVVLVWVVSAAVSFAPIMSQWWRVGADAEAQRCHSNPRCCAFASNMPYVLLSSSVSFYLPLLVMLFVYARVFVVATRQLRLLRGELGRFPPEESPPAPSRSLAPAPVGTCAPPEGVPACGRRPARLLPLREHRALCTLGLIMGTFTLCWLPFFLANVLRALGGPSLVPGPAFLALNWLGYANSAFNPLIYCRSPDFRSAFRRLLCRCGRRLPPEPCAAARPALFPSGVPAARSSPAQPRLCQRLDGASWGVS
- experiment: Intrinsic activity at human adrenergic beta-3 receptor expressed in CHO cells assessed as cAMP production relative to isoproterenol
- Assay type: functional, cell-based
observationType: Intrinsic activity (%)

// worked examples, Intrinsic activity included
O[C@@H](CNCCOc1ccc(-c2cnco2)cc1)c1cccnc1 = 98
COCc1nc(-c2ccc(OCCNC[C@H](O)c3cccnc3)cc2)co1 = 110
O[C@@H](CNCCc1ccc(-c2csc(-c3ccccc3)n2)cc1)c1cccnc1 = 108
CC(C)c1nc(-c2ccc(OCCNC[C@H](O)c3cccnc3)cc2)co1 = 135
O[C@@H](CNCCOc1ccc(-c2csc(-c3cccnc3)n2)cc1)c1cccnc1 = 121

(A) O[C@@H](CNCCOc1ccc(-c2csc(C(F)(F)F)n2)cc1)c1cccnc1
(B) O=S(=O)(Nc1ccc(CCNC[C@H](O)c2cccnc2)cc1)c1ccc(-c2nc(-c3ccc(C(F)(F)F)cc3)cs2)cc1
Prompt line: Min Intrinsic activity? A | B Write down the label of the entry you select.
Response line: B
(B: 92%, A: 150%)

###

- systemName: UniProtKB P08588
pKi: −log10 of the molar value.
observationType: pKi

// worked examples, pKi included
O[C@@H](CNCCOc1ccc(-c2cocn2)cc1)c1cccnc1 = 6.70
OCc1nc(-c2ccc(OCCNC[C@H](O)c3cccnc3)cc2)co1 = 6.57
CCc1nc(-c2ccc(OCCNC[C@H](O)c3cccnc3)cc2)cs1 = 7.43
O[C@@H](CNCCOc1ccc(-c2csc(-c3ccncc3)n2)cc1)c1cccnc1 = 7.01

(1) Cc1ocnc1-c1ccc(OCCNC[C@H](O)c2cccnc2)cc1
(2) Cc1nc(-c2ccc(OCCNC[C@H](O)c3cccnc3)cc2)co1
(3) Cc1nc(-c2ccc(OCCNC[C@H](O)c3cccnc3)cc2)cs1
Prompt line: List these items ordered by pKi, big to small. Reply format: the labels, ordered as requested.
Response line: 3, 1, 2

###

- systemName: UniProt:P13945
- experiment: Intrinsic activity at human adrenergic beta-3 receptor expressed in CHO cells assessed as cAMP production relative to isoproterenol
- Format: functional, cell-based
observationType: Intrinsic activity (%)

CS(=O)(=O)Nc1cc([C@@H](O)CNCCc2ccc(-c3csc(-c4ccccc4)n3)cc2)ccc1Cl = 70
Cc1ocnc1-c1ccc(OCCNC[C@H](O)c2cccnc2)cc1 = 80
O[C@@H](CNCCOc1ccc(-c2csc(C3CCCC3)n2)cc1)c1cccnc1 = 159
O[C@@H](CNCCOc1ccc(-c2cocn2)cc1)c1cccnc1 = 94

###

Reported pKi for target or system Beta-1 adrenergic receptor (Homo sapiens, UniProt P08588), by entry.
Just the number, please; pKi means minus log10 of the concentration in mol/L.

// worked examples, pKi included
O[C@@H](CNCCOc1ccc(-c2csc(C3CCCC3)n2)cc1)c1cccnc1 = 6.89
O[C@@H](CNCCOc1ccc(-c2coc(COCc3ccccc3)n2)cc1)c1cccnc1 = 7.30
O[C@@H](CNCCOc1ccc(-c2csc(-c3cccnc3)n2)cc1)c1cccnc1 = 6.92

Prompt line: Param readout= pKi; system= Beta-1 adrenergic receptor (Homo sapiens, UniProt P08588); entry= O[C@@H](CNCCOc1ccc(-c2csc(-c3ccccc3)n2)cc1)c1cccnc1 ; returns value.
Response line: 6.82
